Known differential viability (reversal) of a selection of molecules
# Assay Details: reversal of MRP1-mediated doxorubicin resistance, pilot screen, H69AR cells, doxorubicin co-treatment (AID 601)
# Condition Set: H69AR cells + 2 uM doxorubicin, CellTiter-Glo, 72 h; at 10 µM; active compounds read high
Calls of active or inactive are those of the source.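 How the source made its calls: active means viability loss from added drug above about 55%, and viability with drug at most 40%, in both replicates (limit read from the data, passing the limit was not always enough); inconclusive means both conditions met in only one replicate; inactive means neither replicate meets both conditions.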

Please review the entries below; each comes with its answer.
For reference, reported differential viability (reversal) for Cc1ccc(C(=O)/C=C/Nc2cccc(O)c2)cc1 stands at 3.02% (inactive)

Reported differential viability (reversal) of Cc1cc(C)n(-c2nc3sc4c(c3c3nnc(SC(C)C)n23)CC(C)(C)OC4)n1 : 2.36% (inactive)

Quick note, differential viability (reversal) for COc1ccccc1N1CCN(C/C(O)=C(\C#N)c2nc(-c3ccccc3)cs2)CC1 landed at -6.43% (inactive)

Short answer for Cc1[nH]c2ccccc2c1Cc1nnc(SCC(=O)NCc2ccco2)o1 : differential viability (reversal) was 8% (inactive)

Memo: CCCN(CCC)C(=O)C(CCC(=O)O)NC(=O)c1ccccc1 (stereo unspecified) , reported differential viability (reversal): 9.32% (inactive)

The molecule CC12C(=O)N(CCC(=O)O)C(=O)C1C1C=CC2C1 (stereo unspecified) showed differential viability (reversal) equal to -1.44% (inactive)

Record COc1ccc(CCNC(=O)CN(c2ccccc2OC)S(C)(=O)=O)cc1 , field differential viability (reversal): 15.6% (inactive)

Entry under test: CCOCCCNC(=O)C1CC(=O)N(C2CCCC2)C1 (stereo unspecified) . Its differential viability (reversal) was 4.13% (inactive)

// field: differential viability (reversal); key: CC(=O)Nc1ccc(S(=O)(=O)NCc2csc(-c3cccnc3)n2)cc1 ; value = -4.67% (inactive)

Value of differential viability (reversal) reported for the molecule Cc1ccc2cc(CN(CCN3CCCC3)C(=O)Nc3ccc(F)cc3)c(=O)[nH]c2c1C is -12.2% (inactive)

***
Lab note: CCOC(=O)c1cccc(NC(=O)CSc2nc3cccnc3n2C)c1 gave differential viability (reversal) of -1.5% (inactive)
